Biological target: BRAF V600E (Homo sapiens, UniProt P15056, V600E)
Construct: endogenous C-terminal HiBiT fusion tag on BRAF V600E allele; endogenous in cells; host or cells: A375 clone 1F10 (CRISPR-Cas9 knock-in of the HiBiT tag; parental A375 from ATCC)
Sequence (P15056 whole entry V600E, the tested form may be a part): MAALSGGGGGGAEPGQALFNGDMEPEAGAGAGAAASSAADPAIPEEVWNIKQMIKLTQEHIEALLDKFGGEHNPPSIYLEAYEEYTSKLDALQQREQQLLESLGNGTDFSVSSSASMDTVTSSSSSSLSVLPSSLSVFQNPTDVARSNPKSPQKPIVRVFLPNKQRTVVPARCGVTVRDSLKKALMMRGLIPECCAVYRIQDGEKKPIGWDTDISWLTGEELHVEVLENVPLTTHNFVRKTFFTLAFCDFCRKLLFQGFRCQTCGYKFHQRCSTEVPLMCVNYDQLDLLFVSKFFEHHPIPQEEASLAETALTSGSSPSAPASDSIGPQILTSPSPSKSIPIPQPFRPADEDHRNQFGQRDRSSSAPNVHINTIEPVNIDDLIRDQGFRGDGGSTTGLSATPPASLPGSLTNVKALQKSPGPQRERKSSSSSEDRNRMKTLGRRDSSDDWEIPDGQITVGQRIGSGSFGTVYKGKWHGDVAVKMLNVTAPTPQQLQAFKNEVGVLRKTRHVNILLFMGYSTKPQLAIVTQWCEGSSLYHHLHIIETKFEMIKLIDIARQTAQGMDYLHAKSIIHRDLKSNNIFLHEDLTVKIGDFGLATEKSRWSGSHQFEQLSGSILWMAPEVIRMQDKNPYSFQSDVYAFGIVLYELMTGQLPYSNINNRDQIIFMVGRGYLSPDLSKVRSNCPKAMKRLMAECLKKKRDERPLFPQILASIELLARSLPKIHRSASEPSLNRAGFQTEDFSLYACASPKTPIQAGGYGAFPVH
Experiment: BRAF HiBiT degradation assay, C-terminal HiBiT-tagged BRAF V600E A375 cells (clone 1F10), Nano-Glo HiBiT Lytic assay
Format: cell-based
Settings: A-375; A375 (BRAF V600E); percentage protein degraded at maximal compound effect relative to DMSO
Measured Dmax values are reported for all entries that follow.
recorded-endpoint: Dmax

CCCS(=O)(=O)Nc1cccc(-c2nc(C(C)(C)C)sc2-c2ccnc(N[C@H]3CC[C@@H](N4CCN(C(=O)C5CCN(c6ccc(C7CCC(=O)NC7=O)cn6)CC5)CC4)CC3)n2)c1F (mixture of isomers) = > 70%
CCCS(=O)(=O)Nc1cccc(-c2nc(C(C)(C)C)sc2-c2ccnc(NC3CC4(C3)CN(CC[C@H]3CCN(c5ccc(C6CCC(=O)NC6=O)cn5)C3)C4)n2)c1F (mixture of isomers) = 30 to 70%
CCCS(=O)(=O)Nc1cccc(-c2nc(C(C)(C)C)sc2-c2ccnc(NC3CC4(C3)CN(C(=O)CC3CCN(C5CCN(c6ccc7c(c6)C(=O)N(C6CCC(=O)NC6=O)C7=O)CC5)CC3)C4)n2)c1F (racemic) = 30 to 70%
CCN(C)S(=O)(=O)Nc1cccc(-c2nc(C(C)(C)C)sc2-c2ccnc(Nc3ccc(N4CCN(C(=O)C5CCN(c6ccc(C7CCC(=O)NC7=O)cn6)CC5)CC4)cn3)n2)c1F (racemic) = > 70%
CCCS(=O)(=O)Nc1cccc(-c2cn(-c3ccc(C4CCN(CC5CCN(c6ccc(C7CCC(=O)NC7=O)cc6F)CC5)CC4)cc3)nc2-c2ccncc2)c1F (racemic) = > 70%
